Entries and their normalised response values follow.
System: HCC1143
experimental protocol: normalised response (% of control), CellTiter-Glo; higher = more viable cells (100 = DMSO, 0 = benzethonium chloride kill control)
condition context: incubation time: 72 h
Hi, when you answer, please include the unit after the number. Thanks!

Sample answers from the record:
COc1ncc(-c2ccc3nccc(-c4ccnnc4)c3c2)cc1NS(=O)(=O)c1ccc(F)cc1F (1000 nM) ... 23.6%
COC1=C2C[C@@H](C)C[C@H](OC)[C@H](O)[C@@H](C)/C=C(\C)[C@H](OC(N)=O)[C@@H](OC)/C=C\C=C(/C)C(=O)NC(=CC1=O)C2=O [Geldanamycin] (10000 nM) ... 24.1%
COC1=CC(c2cc3ccccc3[nH]2)=N/C1=C\c1[nH]c(C)cc1C [Obatoclax] (10000 nM) ... 92%
COc1cc(Nc2ncc(F)c(Nc3ccc4c(n3)NC(=O)C(C)(C)O4)n2)cc(OC)c1OC [Tamatinib] (10000 nM) ... 101%
FC(F)c1nc2ccccc2n1-c1nc(N2CCOCC2)nc(N2CCOCC2)n1 [ZSTK474] (10000 nM) ... 37.9%

-- ask GET normalised response | system: HCC1143 | item: COc1ccc(C2=N[C@@H](c3ccc(Cl)cc3)[C@@H](c3ccc(Cl)cc3)N2C(=O)N2CCNC(=O)C2)c(OC(C)C)c1 [Nutlin-3] (10000 nM)
-- reply 92.9%
